target: Rho-A (Homo sapiens, UniProt P61586); assay: Ras GTP binding domain inhibition assay (Cy3-GTP/Cy5-GTP competition); settings: with SOS, read-out: Rho-A + SOS: % inh.
Sequence (P61586 1-190): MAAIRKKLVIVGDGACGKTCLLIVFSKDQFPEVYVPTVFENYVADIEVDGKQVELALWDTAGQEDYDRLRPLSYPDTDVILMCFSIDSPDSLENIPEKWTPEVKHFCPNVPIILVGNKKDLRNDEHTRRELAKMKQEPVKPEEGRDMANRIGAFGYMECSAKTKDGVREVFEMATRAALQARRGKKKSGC
Quantity name: inhibition at 20 µM

Oc1nc(-c2nccn2Cc2ccccn2)nc2c(-c3ccccn3)csc12 [drawing 986] :: 51 to 75%
COC1CCN(C(=O)c2sc3nc(-c4nccn4C)nc(N[C@H]4C[C@@H](OC)C4)c3c2-c2ccccc2)C1 (some centres unmarked) [drawing 1058] :: 76 to 100%
COCCNc1nc(-c2nccn2C)nc2sc(-c3cccc(OC)c3Cl)c(-c3ccccc3)c12 [drawing 1007] :: 51 to 75%
COc1cccc(-c2csc3c(O)nc(-c4nccn4C)nc23)c1Cl [drawing 1013] :: 1 to 25%
COc1cc(-c2sc3nc(-c4nccn4C)nc(N4CCC(OC)C4)c3c2-c2ccccc2)ccn1 (centres unmarked) [drawing 980] :: 26 to 50%

Quick check: inhibition at 20 µM of COCCCNc1nc(-c2nccn2C)nc2sc(-c3ccn(C)n3)c(-c3ccc(OC)cc3)c12 [drawing 1005] ?
51 to 75%

Any idea what inhibition at 20 µM was measured for CCOc1cccc(Nc2nc(-c3ccccn3)nc(O)c2OC)c1 [drawing 1017] ?
51 to 75%

# input compound: COCCNc1nc(-c2nccn2C)nc2sc(-c3cc(OC)ccc3Cl)c(-c3ccc(OC)cc3)c12 [drawing 1012] ; wanted: its inhibition at 20 µM
1 to 25%
